# procedure.summary: Solubility of compound in methyl ethyl ketone (MEK)
# Assay type: physicochemical
# test.parameters: solubility to 10 g of methyl ethyl ketone; 1 atm and room temperature

{"columns": ["compound", "MEK solubility"],
 "data": [
  ["Cc1ccc(-n2nc(-c3ccccc3)c(C=C3C(=O)N(C4CCCCC4)C(=O)N(C4CCCCC4)C3=O)c2O)c(C)c1 [Compound P7]", "∘"],
  ["Cc1ccccc1-n1nc(C)c(C=C2C(=O)N(C3CCCCC3)C(=O)N(C3CCCCC3)C2=O)c1O [Compound P3]", "∘"],
  ["Cc1ccc(-n2nc(C(C)C)c(C=C3C(=O)N(C4CCCCC4)C(=O)N(C4CCCCC4)C3=O)c2O)c(C)c1 [Compound P10]", "∘"]
]}
